Would you kindly list Cmax for each of these compounds?
protocol summary: Plasma concentration after intragastric administration to cynomolgus monkey (LC-MS/MS)
Type: in vivo
run conditions: po; male cynomolgus monkey, fasted, 3 mg/kg intragastric in 0.5% MC, plasma; read-out: Cmax: Maximum concentration
Write it as a number; the unit ng/mL goes unstated.

Looking up Cc1c(C(=O)Nc2ccc(S(C)(=O)=O)cc2)cn(CCO)c1-c1ccccc1C(F)(F)F (racemic) [Comparative compound, reference compound] , I see its Cmax listed as 230

Looking up Cc1c(C(=O)Nc2ccc(S(C)(=O)=O)cc2)cn([C@H](C)[C@H](C)O)c1-c1ccc(Cl)cc1C(F)(F)F (single isomer, unassigned) [Example 3-isomer A] , I see its Cmax listed as 1440

Looking up Cc1c(C(=O)Nc2ccc(S(C)(=O)=O)cc2)cn([C@H](C)[C@H](C)O)c1-c1ccc(F)cc1C(F)(F)F (single isomer, unassigned) [Example 2-isomer A] , I see its Cmax listed as 1280
